System: NCI-H522
test-description: NCI tumour cell line growth inhibition, 48 h
Activity calls are given as the source filed them. No stated cut-off is given here; in the data, active = GI50 up to about 1.1 µM and inactive = higher.
Bench note: report the call from TRUE (active), FALSE (inactive)

Example entries and their recorded answers appear below.
{"columns": ["compound", "group-label"],
 "data": [
  ["CC1C(=O)OC2CC[N+]3([O-])CC=C(COC(=O)C(C)(O)C1(C)O)C23 (stereo not given)", "FALSE"],
  ["CCCCCCCCCOCC(COP(=O)([O-])OCC[N+](C)(C)C)OC (stereo not given)", "FALSE"],
  ["CC(C)N(Cc1ccccc1)S(=O)(=O)c1nc(C(C)(C)C)n[nH]1", "FALSE"]
]}

Ask: Hi, sorry to bother you, what did the test record for O=C(Nc1ccc(Cl)cc1Cl)C(=O)Nn1c(S)nc2ccccc2c1=O ?
Result: FALSE

Ask: Hi, sorry to bother you, what did the test record for S=c1sscc1N1CCSc2ssc(=S)c21 ?
Result: FALSE

Ask: Hi, sorry to bother you, what did the test record for N#CC1=C(c2ccccc2)NNC(c2ccc(Cl)cc2)CC1=O (stereo not given) ?
Result: FALSE

Ask: Hi, sorry to bother you, what did the test record for COc1cc(OC)cc(Oc2nc3ccccc3nc2C(F)(F)F)c1 ?
Result: FALSE

Ask: Hi, sorry to bother you, what did the test record for COc1ccc(/C=C2\CN(C)Cc3c2nc(O)c(C#N)c3-c2ccc(OC)cc2)cc1 ?
Result: FALSE

Ask: Hi, sorry to bother you, what did the test record for N[C@H]1c2c(Br)sc(Br)c2C(=O)[C@H]1O ?
Result: FALSE

Ask: Hi, sorry to bother you, what did the test record for Clc1ccc(-c2nnc(-c3cccc4ccccc34)o2)cc1Cl ?
Result: FALSE

Ask: Hi, sorry to bother you, what did the test record for CCCC(=O)NC(Nc1ccc(S(=O)(=O)Nc2nc(C)cc(C)n2)cc1)(C(F)(F)F)C(F)(F)F ?
Result: FALSE

###

Test system: RPMI-8226
test-description: NCI tumour cell line growth inhibition, 48 h
Active and inactive are the calls of the source. Cut-off read from the data, not from the text of the source: active = GI50 up to about 1.1 µM and inactive = higher.
Bench note: report the call from active, inactive

Example entries and their recorded answers appear below.
{"columns": ["molecule", "target-of-assay", "group-label"],
 "data": [
  ["O=C1CNC(=O)N1", "RPMI-8226", "inactive"],
  ["CN(C)CC1CCC/C(=C\\c2ccc(OC(=O)/C=C/c3ccc(Cl)cc3)cc2)C1=O (stereo unspecified)", "RPMI-8226", "active"],
  ["Cn1c(N)[n+](C(=O)OCc2ccccc2)c(=O)c2c1ncn2C(=O)OCc1ccccc1", "RPMI-8226", "inactive"],
  ["CCc1n[nH]c(=O)n1CCO", "RPMI-8226", "inactive"],
  ["CC(=O)Oc1ccc(-c2nnc(-c3ccc(OC(C)=O)cc3)nn2)cc1", "RPMI-8226", "inactive"],
  ["NS(=O)(=O)C1CCCCC1C(=O)NNC(=O)C(=O)Nc1nnc(S)[nH]1 (stereo unspecified)", "RPMI-8226", "inactive"],
  ["Cc1nc(-c2ccccc2)c(-c2ccccc2)s1", "RPMI-8226", "inactive"],
  ["N[C@H]1c2c(Br)sc(Br)c2C(=O)[C@H]1O", "RPMI-8226", "inactive"]
]}

Ask: Hi, sorry to bother you, what did the test record for C#CCNC(=O)NC(CCCCNC(=O)OCc1ccccc1)C(=O)OCc1ccccc1 (stereo unspecified) ?
Result: inactive

Ask: Hi, sorry to bother you, what did the test record for C=CCSc1nc2c(N)ncnc2n1C1OC(CO)C(O)C1O (stereo unspecified) ?
Result: inactive

Ask: Hi, sorry to bother you, what did the test record for CC(=O)Oc1cc(Cl)c(OC(C)=O)c2c(OC(C)=O)c(C)c(O[Si](C)(C)C(C)(C)C)cc12 ?
Result: inactive

Ask: Hi, sorry to bother you, what did the test record for C/C(CC(=O)Nc1cccc([N+](=O)[O-])c1)=N\NC(=O)CC#N ?
Result: inactive

Ask: Hi, sorry to bother you, what did the test record for NC1=NS(=O)(=O)Nc2nc(-c3ccccc3)c(-c3ccccc3)nc21 ?
Result: inactive

Ask: Hi, sorry to bother you, what did the test record for Cc1ccc(-c2c(C#N)c(-c3ccc([N+](=O)[O-])cc3)c(C#N)c(=O)n2NS(=O)(=O)c2ccc(C)cc2)cc1 ?
Result: inactive

Ask: Hi, sorry to bother you, what did the test record for O=C1C2CC=CCC2C(=O)N1n1c(Cc2ccc(Cl)cc2)n[nH]c1=O (stereo unspecified) ?
Result: inactive

Ask: Hi, sorry to bother you, what did the test record for COc1ccc(OCC(=N/NC(=O)c2ccncc2)/N=C/c2ccncc2)cc1 ?
Result: inactive

Ask: Hi, sorry to bother you, what did the test record for COc1cc(OC)c2c(=O)c3cccc(C)c3n(C)c2c1 ?
Result: inactive

Ask: Hi, sorry to bother you, what did the test record for O=C(OCC(OC(=O)c1ccccc1)C(OC(=O)c1ccccc1)C(OC(=O)c1ccccc1)c1cnn(-c2ccccc2)n1)c1ccccc1 (stereo unspecified) ?
Result: inactive

Ask: Hi, sorry to bother you, what did the test record for COC(=O)/C=C(\S/C=C(/c1ccccc1)N1CCn2c(C(=O)c3ccccc3)c(C(=O)OC)c(C(=O)OC)c21)C(=O)OC ?
Result: inactive

Ask: Hi, sorry to bother you, what did the test record for COc1cc(C2(O)c3ccccc3C3=NCCN32)cc(OC)c1OC (stereo unspecified) ?
Result: inactive

Ask: Hi, sorry to bother you, what did the test record for O=C1Nc2ccccc2S/C1=C\c1ccc(C(F)(F)F)cc1 ?
Result: inactive
